Reported pKd is given for each of the following binders.
Molecular target: MAGI3_2, Q5TCQ9
Sequence (Q5TCQ9 398-503): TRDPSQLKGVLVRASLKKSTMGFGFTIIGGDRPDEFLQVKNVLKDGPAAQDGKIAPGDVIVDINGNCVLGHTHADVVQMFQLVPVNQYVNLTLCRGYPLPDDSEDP
Assay: holdup assay
Design: key: below the threshold = too weak to quantify, mostly under pKd 3.1 to 4
Settings: plain residues with an end cap or a label only (N-terminal biotin on a linker: ado-ado)
Just the number, please.

Value lookup for pKd; key = TNSRHGETTV [FZD2, Q14332]
5.11

Value lookup for pKd; key = EIPAQSPTCV [FZD10, Q9ULW2]
4.12

Value lookup for pKd; key = VKRNSKETVV [MARCHF3, Q86UD3]
5.72

Value lookup for pKd; key = DTKNYKQTSV [CRIPT, Q9P021]
4.72

Value lookup for pKd; key = NIAESLESLV [PTPRZ1, P23471]
4.92
